Cited source: ChEMBL document CHEMBL2062492

tested on: MCF7; experiment: Growth inhibition of human MCF7 cells at 10^-6 M after 5 days relative to control; type: functional; details: MCF7, 120 h, read-out: GI
Reported inhibition of growth at 1 µM is given for each of the following molecules.
Write it as a number; the unit % goes unstated.

Worked cases, inhibition of growth at 1 µM given:
CC/C(=C(\c1ccccc1)c1ccc(OCCN(C)C)cc1)c1ccccc1 | 52
CC/C(=C(/c1ccc(OCCN(C)C)cc1)c1ccc(B(O)O)cc1)c1ccccc1 | 75
CC/C(=C(/c1ccc(OCCN(C)C)cc1)c1ccc([B-](F)(F)F)cc1)c1ccccc1.[K+] | 76
CCC(=C(c1ccc(O)cc1)c1ccc(OCCN(C)C)cc1)c1ccccc1 | 63

Briefly, inhibition of growth at 1 µM measured for CC/C(=C(/c1ccc(OCCN(C)C)cc1)c1ccc(B2OC(C)(C)C(C)(C)O2)cc1)c1ccccc1 : 63

----------
test system: MCF7; assay: Drug uptake in human MCF7 cells at 10^-6 M after 6 days by HPLC-MS/MS analysis; format: ADME, cell-based; conditions: mcf7, 144 h, 1 µM
recordedMetric: Drug uptake

CC/C(=C(/c1ccc(OCCN(C)C)cc1)c1ccc([B-](F)(F)F)cc1)c1ccccc1.[K+] | Active
CC/C(=C(/c1ccc(OCCN(C)C)cc1)c1ccc(B(O)O)cc1)c1ccccc1 | Active
CCC(=C(c1ccc(O)cc1)c1ccc(OCCN(C)C)cc1)c1ccccc1 | Active
CC/C(=C(/c1ccc(OCCN(C)C)cc1)c1ccc(B2OC(C)(C)C(C)(C)O2)cc1)c1ccccc1 | Active

----------
assay: Half life of the compound in human MCF7 cells at 10^-6 M by HPLC-MS/MS analysis; assay type: ADME, cell-based
recordedMetric: half-life at 1 µM (days)
Could you give me the number in days? Just the number is fine.

CC/C(=C(/c1ccc(OCCN(C)C)cc1)c1ccc(B(O)O)cc1)c1ccccc1 | 4

Just so you know, measured half-life at 1 µM for CC/C(=C(/c1ccc(OCCN(C)C)cc1)c1ccc(B2OC(C)(C)C(C)(C)O2)cc1)c1ccccc1 came out at 3.71

Query CC/C(=C(/c1ccc(OCCN(C)C)cc1)c1ccc([B-](F)(F)F)cc1)c1ccccc1.[K+] yields half-life at 1 µM of 3.5
